# System: primary human hepatic stellate cells (donor 1)
# PROTOCOL DETAILS: scaled lipid accumulation score (0 = DMSO-like, 1 = nortriptyline-like); higher = stronger HSC inactivation (lipid re-accumulation), active = hit call of the paper
# CONDITION PARAMETERS: library stock concentration: 6.1 mM; 48 h
Structures can show the parent of a compound that is named as a salt. Among all 5,800 compounds or so, about 620 (11%) showed activity.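 How the source made its calls: active = score above a cut-off or among the top three wells of a plate; in these data no inactive exceeds 0.85.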 Many of the other results were omitted from the sample, so actives are more common in it than they were.
Hi there, use one of these labels in your reply, thanks! y = active, n = inactive

>>> print(df.to_string())
                                   molecule                         system_under_test  discrete_label
0  CCC(=O)O[C@H]1CC[C@H]2[C@@H]3CCc4cc(O)ccc4[C@H]3CC[C@]12C [Estradiol propionate]  primary human hepatic stellate cells (donor 1)               n
1  CC(C(O)c1ccc(O)cc1)N1CCC(Cc2ccccc2)CC1 (stereo unspecified) [Ifenprodil]  primary human hepatic stellate cells (donor 1)               n
2  COc1cc(C(=O)NCCCCCC(=O)O)cc(OC)c1OC [Capobenic acid]  primary human hepatic stellate cells (donor 1)               n
3  Fc1ccc([C@@H]2CCNC[C@H]2COc2ccc3c(c2)OCO3)cc1 [Paroxetine HCl]  primary human hepatic stellate cells (donor 1)               y
4  O=C(O)Cc1sc(-c2ccccc2)nc1-c1ccc(Cl)cc1 [Fentiazac]  primary human hepatic stellate cells (donor 1)               n

### Prompt Dear all, I need the recorded test outcome for CC1=C(C)C(=O)C(CCCCC#CCCCC#CCO)=C(C)C1=O [Docebenone] , thank you.
### Response n

Where do these numbers come from? They come from the supplement of paper PMC9135407.
